Target: MBP-FoxP3dN (Mus musculus, UniProt Q99JB6 188-423)
Sequence: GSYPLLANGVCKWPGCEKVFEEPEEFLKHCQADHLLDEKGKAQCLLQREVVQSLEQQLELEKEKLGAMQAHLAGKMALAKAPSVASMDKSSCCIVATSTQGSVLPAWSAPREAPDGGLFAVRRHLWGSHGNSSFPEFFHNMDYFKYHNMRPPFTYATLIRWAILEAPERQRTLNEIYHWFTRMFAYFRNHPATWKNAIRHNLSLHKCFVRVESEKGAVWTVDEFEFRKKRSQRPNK
Assay: PD-seq (MBP pull-down with sequencing); 20 mM Tris-HCl pH 7.5, 100 mM NaCl, 1.5 mM MgCl2, 0.4 uM protein, 0.1 uM dsDNA library, 30 min, room temperature, amylose pull-down; high values mean tight binding
Conditions: protein: recombinant; tags: His6-MBP; chain copies: 2; dsDNA, one strand shown
In all, about 16,000 sequences were measured (“rpm ratio (pull-down/input)”: median about 0.5, highest 2% from about 5.5 on). This is one part of a sample in which the highest values are shown more often than they occur.
experimental.endpoint: binding signal

Consider the worked cases shown below.
1. GATGATTGTTCTCCCAGCTGATGAATTCCTCGTATCGAGTAAACAAATTTTCCTAATCTTTCTGTTCAAGCGCCATCTAC
0.403 RPM ratio (pull-down/input)
2. GATGATTGTTCTCCCAGCTGATGAATTCTTGTCATCGAGTAAACAAATTTTCCTAATCTTTCTGTTCAAGCGCCATCTAC
0.625 RPM ratio (pull-down/input)
3. GATGATTGTTCTCCCAGCTGATGAATTTACTGGCTCGAGTAAACAAATTTTCCTAATCTTTCTGTTCAAGCGCCATCTAC
0.472 RPM ratio (pull-down/input)
4. GATGATTGTTCTCCCAGCTGATGAATTTGCAAATTCGAGTAAACAAATTTTCCTAATCTTTCTGTTCAAGCGCCATCTAC
0.496 RPM ratio (pull-down/input)
5. GATGATTGTTCTCCCAGCTGATGAATTTGCAATTTCGAGTAAACAAATTTTCCTAATCTTTCTGTTCAAGCGCCATCTAC
2.77 RPM ratio (pull-down/input)
6. GATGATTGTTCTCCCAGCTGATGAATTTGGACTGTCGAGTAAACAAATTTTCCTAATCTTTCTGTTCAAGCGCCATCTAC
0.82 RPM ratio (pull-down/input)

(Q) Look at this sequence and give its reported binding signal. `GATGATTGTTCTCCCAGCTGATGAATTTCGCAATTCGAGTAAACAAATTTTCCTAATCTTTCTGTTCAAGCGCCATCTAC`
(A) 4.55 RPM ratio (pull-down/input)

(Q) Query `GATGATTGTTCTCCCAGCTGATGAATTTTTAGGATCGAGTAAACAAATTTTCCTAATCTTTCTGTTCAAGCGCCATCTAC` next
(A) 0.222 RPM ratio (pull-down/input)

(Q) Query `GATGATTGTTCTCCCAGCTGATGAATTCGCAATTTCGAGTAAACAAATTTTCCTAATCTTTCTGTTCAAGCGCCATCTAC` next
(A) 1.92 RPM ratio (pull-down/input)
